Values compiled from PubChem BioAssay (NCI).

For each of the compounds below, state its TGI.
- Test system: NCI-H23 lung
- assay_info: NCI tumour cell line growth inhibition, 48 h

Query: State its TGI on NCI-H23 lung: OCCN1c2ccccc2Sc2ccccc21
Response: > 10 µM

Query: Give TGI (NCI-H23 lung) of the following compound: COc1cc(Nc2cnc3cc(N)ccc3n2)cc(OC)c1OC
Response: > 100 µM

Query: Any idea what TGI came out for CCN=C1Nc2ccccc2-n2c(nn3nc4ccccc4c23)N1CC on NCI-H23 lung?
Response: > 100 µM

Query: Record lookup: for NCI-H23 lung, what TGI belongs to COc1cc2cccc(N=Cc3ccccc3Cl)c2cc1OC ?
Response: > 100 µM

###

- System: MALME-3M melanoma
- assay_info: NCI tumour cell line growth inhibition, 48 h
result_type: TGI

Query: Any idea what its TGI is? The compound is Cc1c(-c2ccccc2)c(C#N)c2nnn(-c3ccc([N+](=O)[O-])cc3)c(=O)n12
Response: > 100 µM

Query: So what's the measured TGI for this one? CCN(Cc1ccncc1)c1ccc(CO)c(Cl)c1
Response: > 100 µM

Query: Fill blank: measured TGI of the compound c1ccc(-c2c(-c3ccccc3)[n+](Cc3ccc4ccccc4c3)c(-c3cccc4ccccc34)n2Cc2ccc3ccccc3c2)cc1 is ____.
Response: 1 µM

Query: Which TGI is reported for this compound? Cc1cc(OCC(O)CO)ccc1-c1ccccc1 (configuration not stated)
Response: > 100 µM

Query: # input compound: N#CCCN(CCCN(C(=O)N(c1ccccc1)c1ccccc1)c1ccccc1)C(=O)Nc1ccccc1 ; wanted: its TGI
Response: > 100 µM

Query: Could you tell me which TGI is on file for CC[C@@]1(O)C[C@H](OC2CC(N(C)C)C(OC3CC(O)C(OC4CC(O)C(O)C(C)O4)C(C)O3)C(C)O2)c2c(cc3c(c2O)C(=O)c2c(O)ccc(O)c2C3=O)[C@H]1C(=O)OC (some centres not stated) ?
Response: 0.196 µM

Query: What value of measured TGI is listed for C[C@H]1COC(c2ccccn2)=N1 ?
Response: > 100 µM

Query: Entry FC(F)(F)c1ccc(-c2cnc(Cl)nc2NC2CCCCCC2)cc1 : reported TGI = ?
Response: > 100 µM

Query: # query: TGI of entry CCCCNCC(O)c1cc2c(Cl)cc(Cl)cc2c2cc(C(F)(F)F)ccc12 (configuration not stated)
Response: 4.26 µM

Query: Value lookup for TGI; key = N=c1oc2c(O)c(O)ccc2cc1C(N)=O
Response: > 100 µM

Query: What TGI value was documented for this compound, CC(C)(/C=N\O)NO ?
Response: > 10 µM

Query: Using the record for Nc1cc2c([nH]c[n+]2CC#CCCl)c(SCC#CCCl)n1 , report its TGI.
Response: 3.17 µM

###

Please provide measured TGI for the entries that follow.
- Tested on: RPMI-8226 leukemia
- assay_info: NCI tumour cell line growth inhibition, 48 h

Query: Given the entry CN(C)c1ccc(/C=C/c2nc3ccccc3s2)cc1 , report its measured TGI.
Response: > 100 µM

Query: Which TGI value belongs to Cc1cccc(NC(=O)/C=C/c2ccccc2)c1C ?
Response: > 100 µM

Query: Item CC(C)(/C=N\O)NO has what recorded TGI?
Response: > 10 µM

Query: Name the recorded TGI for CCCC(c1nnnn1C1CCCCC1)N1CCN(C(=O)c2ccco2)CC1 (centres undefined) .
Response: > 100 µM

Query: Report TGI for COc1ccc2c(c1)CC[C@@H]1[C@@H]2CC[C@]2(C)C(=O)/C(=C/c3ccc(C#N)cc3)C[C@@H]12 please.
Response: > 100 µM

Query: Please look up its TGI: Cc1ccccc1-n1c(=O)sc2c(=O)n(-c3ccccc3)c(=S)[nH]c21
Response: > 100 µM

Query: I would be grateful if you could share the reported TGI for Cc1cc(C)c(-c2cc(O)c(-c3c(C)cc(C)cc3C)cc2O)c(C)c1 .
Response: > 100 µM

Query: Fill blank: measured TGI of the compound C[C@H]1COC(c2ccccn2)=N1 is ____.
Response: > 100 µM

Query: Reported TGI for CCN(Cc1ccncc1)c1ccc(CO)c(Cl)c1 : what is it?
Response: > 100 µM

Query: What value of TGI has been recorded for this entry: COC1CC2C3/C(=N/Nc4ccc([N+](=O)[O-])cc4[N+](=O)[O-])CCC2(C)C3C1 (centres undefined)
Response: > 100 µM

Query: Fill in the blank: the reported TGI of C=CCNC(=O)N1CC(C)C(=O)Nc2ccccc21 (centres undefined) is ____.
Response: > 100 µM

Query: Look up TGI for this compound: CN(C)Cc1cc(/C(=C(\C#N)c2ccccc2)c2ccc(O)cc2)ccc1O
Response: 46.4 µM

Query: Requested field: TGI. Item: COc1ccc(NCc2cc(OC)c(OC)c(OC)c2)cc1
Response: > 100 µM

Query: For the compound shown here, CS(=O)(=O)Nc1cc(-c2ccc3ncnc(Nc4ccc5c(cnn5Cc5cccc(F)c5)c4)c3c2)cnc1Cl , give the reported TGI.
Response: 2.05 µM

Query: Entry NC1(C(=O)O)CCCC1C(=O)O (centres undefined) has what TGI?
Response: > 100 µM

Query: For NCCOc1ncccc1/C=C1\c2ccccc2-c2ccc(F)cc21 , what is its reported TGI?
Response: 3.51 µM

Query: Which measured TGI value corresponds to O=C(NCCc1[nH]nc2c1C(=O)C=C(Nc1ccccc1)C2=O)OCc1ccccc1 ?
Response: > 100 µM

Query: Need TGI of O=[N+]([O-])c1cccnc1NCC1(CO)CCCC1 , thanks.
Response: 59.1 µM

Query: I would be grateful if you could share the reported TGI for COc1ccccc1N1C(=O)/C(=C\c2cc(OC)c(OC)c(OC)c2)SC1c1ccccc1 (centres undefined) .
Response: 25.4 µM

Query: // lookup TGI for COc1ccc(/C=C/c2nnc(/C=C/c3ccc(OC)c(OC)c3)o2)cc1OC
Response: > 100 µM

Query: Endpoint output: TGI of COc1ccc(CCn2c3c(c4c(O)cccc42)C(=O)c2ccccc2-3)cc1OC . Value?
Response: > 70.8 µM

Query: Record request: TGI value, item O=C1NC(N/N=C/c2c[nH]c3ccccc23)=N/C1=C\c1cccs1
Response: > 100 µM

Query: Dear colleague, I am looking for the recorded TGI of the following compound: O=C(CCCn1cnc([N+](=O)[O-])n1)NCCCn1ccnc1[N+](=O)[O-]
Response: > 100 µM

Query: May I ask what TGI has been recorded for CCCCNCC(O)c1cc2c(Cl)cc(Cl)cc2c2cc(C(F)(F)F)ccc12 (centres undefined) ?
Response: 4.72 µM

Query: Could you share which TGI value was measured for N#Cc1c(-c2ccccc2)cc(-c2ccccc2)n(CC(=O)NO)c1=O ?
Response: 4.77 µM

Query: Tell me the measured TGI of NS(=O)(=O)N(c1cc(C(F)(F)F)cc(C(F)(F)F)c1)C1CCN(Cc2ccc(F)cc2)CC1 , please.
Response: 22.3 µM

Query: What does the record list as TGI for COc1ccc2c(c1)C(=O)c1c-2n(CCCCl)c(=O)c2cc(OC)c(OC)cc12 ?
Response: 14.5 µM

Query: # lookup: TGI of O=C(c1ccccc1)C(C(=O)c1ccccc1)c1nc2ccccc2sc1=O
Response: > 25 µM

Query: Item under review: COC1=CC(c2ccc[nH]2)=N/C1=C\c1[nH]c(C)c(C(=O)CCCCC(=O)NCc2ccccc2)c1C . Reported TGI?
Response: 6.52 µM

Query: TGI for O=C(NNC(=O)c1ccccc1O)c1ccccc1O ?
Response: > 100 µM

Query: Recorded TGI of COc1ccc2c(c1)[n+]([O-])c(-c1c(Cl)cccc1Cl)c(N)[n+]2[O-] , please.
Response: > 100 µM

Query: Tell me the measured TGI of c1ccc(-c2cc(-c3cccs3)c(-c3cccs3)s2)cc1 , please.
Response: 79 µM

Query: Please look up its TGI: COc1cc(C(=O)NO)ccc1O
Response: > 100 µM

Query: Quick one: TGI for COc1cc(/C=N\O)cc(/C=N/O)c1O ?
Response: 32.4 µM

Query: Can you share its TGI? I mean this compound: COc1cc(-c2n[nH]nc2-c2ccc3c(c2)OCCO3)cc(OC)c1OC
Response: 11 µM

Query: Requested field: TGI. Item: COc1ccc(OC)c(NC(=O)C2=C(C)NC(C)=C(C(=O)Nc3cc(OC)ccc3OC)C2c2ccco2)c1
Response: > 100 µM

Query: Looking for the measured TGI of Cc1c2ccccc2cc2nc3ccccc3n12 , can you help?
Response: > 10 µM

Query: Which TGI value belongs to COc1ccc(C2CC(c3cc(Cl)c(C)cc3O)=NN2c2ccc(S(N)(=O)=O)cc2)cc1OC (centres undefined) ?
Response: > 100 µM

Query: Data request, read-out TGI, for COc1cc(Br)cc2cc(C3=CSC4=NCCN34)c(=O)oc12
Response: 55.3 µM
